experimental_target: UniProt:P50130
Sequence (P50130 whole entry): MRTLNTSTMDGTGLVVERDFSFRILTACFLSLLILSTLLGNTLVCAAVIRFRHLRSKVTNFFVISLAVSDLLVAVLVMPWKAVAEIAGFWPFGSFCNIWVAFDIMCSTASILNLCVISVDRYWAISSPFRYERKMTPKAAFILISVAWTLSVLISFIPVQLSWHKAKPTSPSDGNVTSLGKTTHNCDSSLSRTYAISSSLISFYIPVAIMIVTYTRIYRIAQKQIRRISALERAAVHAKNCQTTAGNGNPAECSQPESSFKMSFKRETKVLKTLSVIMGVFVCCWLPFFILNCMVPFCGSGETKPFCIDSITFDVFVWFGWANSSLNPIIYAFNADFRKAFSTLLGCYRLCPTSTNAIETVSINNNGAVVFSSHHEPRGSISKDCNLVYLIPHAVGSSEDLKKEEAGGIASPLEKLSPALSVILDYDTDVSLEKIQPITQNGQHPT
protocol_text: Displacement of [3H][…] from dopamine receptor D1 in porcine striatal membrane
pKi: −log10 of the molar value.
Kindly return condition met if reported pKi is no lower than 5; return condition not met if it is lower.

• COc1ccccc1N1CCN(Cc2cn3cc(C)cc(N4CCOCC4)c3n2)CC1 = condition met
• COc1ccccc1N1CCN(Cc2cn3c(-n4cccn4)cccc3n2)CC1 = condition not met
• COc1ccccc1N1CCN(Cc2cn3cc(Br)ccc3n2)CC1 = condition met
• Clc1ccc(N2CCN(Cc3cn4nc(N5CCCCC5)ccc4n3)CC2)cc1Cl = condition met
• COc1ccccc1N1CCN(Cc2cn3cc(C)cc(Br)c3n2)CC1 = condition met

* * *

experimental_target: D(2) dopamine receptor (Homo sapiens, UniProt P14416)
Sequence (P14416 whole entry): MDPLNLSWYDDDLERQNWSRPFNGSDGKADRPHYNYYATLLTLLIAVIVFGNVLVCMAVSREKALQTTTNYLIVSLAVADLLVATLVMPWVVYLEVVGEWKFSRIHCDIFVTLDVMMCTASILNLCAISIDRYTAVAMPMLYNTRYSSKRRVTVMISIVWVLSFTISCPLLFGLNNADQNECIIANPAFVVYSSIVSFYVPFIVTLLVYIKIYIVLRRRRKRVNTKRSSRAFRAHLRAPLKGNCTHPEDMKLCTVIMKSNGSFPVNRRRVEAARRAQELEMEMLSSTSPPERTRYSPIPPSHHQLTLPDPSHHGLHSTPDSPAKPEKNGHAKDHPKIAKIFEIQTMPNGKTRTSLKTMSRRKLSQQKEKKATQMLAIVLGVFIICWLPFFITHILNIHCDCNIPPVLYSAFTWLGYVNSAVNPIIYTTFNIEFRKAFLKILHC
protocol_text: Displacement of [3H]spiperone from human dopamine receptor D2(long) in CHO cell membrane
Type: cell membranes
pKi: −log10 of the molar value.
measurement_label: pKi

- CN1CCN(c2ccc3nc(CN4CCN(c5ccc(Cl)c(Cl)c5)CC4)cn3n2)CC1: 5.10
- Clc1ccc(N2CCN(Cc3cn4nc(N5CCCCC5)ccc4n3)CC2)cc1Cl: 5.96
- Fc1ccc(N2CCN(Cc3cn4ccccc4n3)CC2)cc1: 4.68
- Clc1ccc(N2CCN(Cc3cn4cc(Br)ccc4n3)CC2)cc1Cl: 5.46
- COc1ccccc1N1CCN(Cc2cn3cc(C)cc(-c4ccccc4)c3n2)CC1: 7.31
- Fc1ccc(N2CCN(Cc3cn4cccnc4n3)CC2)cc1: 4.26
- COc1ccccc1N1CCN(Cc2cn3c(-n4cccn4)cccc3n2)CC1: 6.23
- Clc1ccc2nc(CN3CCN(c4ccc(Cl)c(Cl)c4)CC3)cn2n1: 5.96
- COc1ccccc1N1CCN(Cc2cn3cc(C)cc(I)c3n2)CC1: 7.06
- Fc1ccc(N2CCN(Cc3cn4nc(Cl)ccc4n3)CC2)cc1: 5.00
- COc1ccccc1N1CCN(Cc2cn3cc(Br)ccc3n2)CC1: 6.89
- Fc1ccc(N2CCN(Cc3cn4ccncc4n3)CC2)cc1: 4.19
- COc1ccccc1N1CCN(Cc2cn3cc(C)cc(Br)c3n2)CC1: 6.62
- COc1ccccc1N1CCN(Cc2cn3cc(C)cc(-n4cccn4)c3n2)CC1: 6.28
- COc1ccccc1N1CCN(Cc2cn3nc(Cl)ccc3n2)CC1: 7.02
- COc1ccccc1N1CCN(Cc2cn3cc(C)cc(N4CCOCC4)c3n2)CC1: 6.68
- Clc1ccc(N2CCN(Cc3cn4ccccc4n3)CC2)cc1: 4.82
- COc1ccccc1N1CCN(Cc2cn3cc(I)ccc3n2)CC1: 7.14
- Clc1ccc(N2CCN(Cc3cn4nc(Cl)ccc4n3)CC2)cc1: 4.92
- COc1ccccc1N1CCN(Cc2cn3cc(C)cc(C#N)c3n2)CC1: 5.38
- Clc1ccc(N2CCN(Cc3cn4ccccc4n3)CC2)cc1Cl: 5.49

* * *

List of log10(Ki) values.
experimental_target: D(4) dopamine receptor (Homo sapiens)
Sequence (P21917 whole entry): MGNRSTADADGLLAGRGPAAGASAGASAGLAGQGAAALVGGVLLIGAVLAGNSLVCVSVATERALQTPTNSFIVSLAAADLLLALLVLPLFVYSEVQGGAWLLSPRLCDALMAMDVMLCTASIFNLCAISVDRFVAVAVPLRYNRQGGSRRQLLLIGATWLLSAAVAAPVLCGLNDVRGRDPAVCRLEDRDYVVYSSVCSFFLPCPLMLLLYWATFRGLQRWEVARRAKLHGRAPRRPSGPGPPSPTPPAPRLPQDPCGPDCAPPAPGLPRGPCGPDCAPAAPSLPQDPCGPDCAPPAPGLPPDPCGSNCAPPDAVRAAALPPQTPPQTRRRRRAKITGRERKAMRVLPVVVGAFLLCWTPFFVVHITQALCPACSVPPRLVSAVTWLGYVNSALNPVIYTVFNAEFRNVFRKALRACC
measurement_label: log10(Ki) (log10 of the value in nM)

* Fc1ccc(N2CCN(Cc3cn4ccncc4n3)CC2)cc1 | 2.70
* COc1ccccc1N1CCN(Cc2cn3nc(Cl)ccc3n2)CC1 | 0.20
* COc1ccccc1N1CCN(Cc2cn3cc(C)cc(-c4ccccc4)c3n2)CC1 | -0.08
* CN1CCN(c2ccc3nc(CN4CCN(c5ccc(Cl)c(Cl)c5)CC4)cn3n2)CC1 | 3.28
* Fc1ccc(N2CCN(Cc3cn4nc(Cl)ccc4n3)CC2)cc1 | 0.60
* COc1ccccc1N1CCN(Cc2cn3cc(C)cc(Br)c3n2)CC1 | 0.00
